# EXPERIMENTAL_PROTOCOL: Tigecycline plasma PK and % F after intraduodenal (ID) injection in anesthetized rats
# Format: in vivo, Sprague-Dawley Rats
# MEASUREMENT_SETUP: female, Sprague-Dawley, rat, plasma, 9 mg/kg, ID, PBS, 9.0 mg/kg (RA853), without animal RA853-6
REPORTED_ENDPOINT: Tmax
Could you give the number and then its unit, please?

Exam item: Output measured Tmax for this item: CN(C)c1cc(NC(=O)CNC(C)(C)C)c(O)c2c1C[C@H]1C[C@H]3[C@H](N(C)C)C(O)=C(C(N)=O)C(=O)[C@@]3(O)C(O)=C1C2=O
Marked response: 30 min
